Target: human Melanocortin-4 receptor (MC4R) (Homo sapiens (Human))
Sequence (P32245 whole entry): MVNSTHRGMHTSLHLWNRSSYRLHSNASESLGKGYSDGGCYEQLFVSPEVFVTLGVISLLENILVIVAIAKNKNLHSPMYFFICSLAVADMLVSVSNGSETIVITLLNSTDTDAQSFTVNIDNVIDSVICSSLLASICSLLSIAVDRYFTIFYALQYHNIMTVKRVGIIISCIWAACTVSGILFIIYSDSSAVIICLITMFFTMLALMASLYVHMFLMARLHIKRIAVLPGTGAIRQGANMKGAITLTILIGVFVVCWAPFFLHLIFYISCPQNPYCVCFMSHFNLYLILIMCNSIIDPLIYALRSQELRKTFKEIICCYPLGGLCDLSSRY
Assay: Functional in vitro MC4R antagonist potency assay (cAMP HTRF in CHO cells)
Format: cell-based
Settings: human MC4R in CHO cells, cAMP HTRF, 200 nM aMSH challenge; Kb from IC50 by Leff-Dougall equation; geometric mean; read-out: Kb (nM) Antagonist geometric
Description: Example BB. Functional In Vitro MC4R Antagonist Potency Assay The functional in vitro antagonist potency for test compounds was determined by monitoring intracellular cyclic adenosine monophosphate (cAMP) levels in Chinese hamster ovary (CHO—) cells stably expressing the human Melanocortin-4 receptor (MC4R). […] Intracellular cAMP levels are quantitated using a homogenous assay utilizing the Homogeneous Time-Resolved Fluorescence (HTRF) technology from CisBio. […]
measuredParameter: Kb (nM)

A = COc1cc([C@@H](C)C(=O)N2CC[C@@]3(CCc4cc(-c5ccnnc5)c(C)nc4N3)C2)c(F)cn1
B = COc1cc([C@@H](C)C(=O)N2CC[C@@]3(CCc4cc(-c5cnn6cccnc56)c(C)nc4N3)C2)c(F)cn1
Response body: label of entry with the larger Kb; valid values A , B . Answer with the label corresponding to your selection.
A
(A: 29 nM, B: 9.5 nM)

----------
molecular target: hMC4R (Homo sapiens (Human), UniProt P32245); experiment: In vitro binding affinity assay using hMC4R (radioligand competition binding, [125I]-(Nle4, D-Phe7)-α-MSH); conditions: geometric mean, read-out: Ki (nM) geometric mean
Sequence (P32245 whole entry): as above
measuredParameter: Ki (nM)

These solved cases illustrate the format of a correct answer.
compound	measuredParameter	unitText	quantitativeResult
COc1nccc([C@@H](C)C(=O)N2CC[C@@]3(CCc4cc(-c5ncccn5)c(C)nc4N3)C2)c1F (single isomer, unassigned) [Example 58]	Ki	nM	190
Cc1nc2c(cc1-c1ncccn1)CC[C@@]1(CCN(C(=O)[C@H](C)c3ccc(Cl)cc3Cl)C1)N2 (single isomer, unassigned) [Example 35]	Ki	nM	82
COc1cc([C@@H](C)C(=O)N2CC[C@@]3(CCc4ccc(C)nc4N3)C2)nc(C)n1 (single isomer, unassigned) [Example 24]	Ki	nM	77
COc1cc([C@@H](C)C(=O)N2CC[C@@]3(CCc4cc(-c5nc(C(F)(F)F)n(C)n5)c(C)nc4N3)C2)c(F)cn1 (single isomer, unassigned)	Ki	nM	16
COc1cc([C@@H](C)C(=O)N2CCC3(CCc4cc(-c5nnn(C)n5)c(C)nc4N3)C2)c(Cl)cn1 (single isomer, unassigned) [Example 2]	Ki	nM	4.5
Cc1nc2c(cc1-c1ncccn1)CC[C@@]1(CCN(C(=O)C(C)c3cc(OC(F)(F)F)ncc3Cl)C1)N2 (single isomer, unassigned) [Example 64]	Ki	nM	1
Cc1nc2c(cc1-c1ncccn1)CC[C@@]1(CCN(C(=O)[C@H](C)c3cc(OC(F)(F)F)ncc3F)C1)N2 (single isomer, unassigned) [Example 75]	Ki	nM	180
COc1ncc(Cl)c([C@@H](C)C(=O)N2CC[C@@]3(CCc4cc(-c5ncccn5)c(C)nc4N3)C2)n1 (single isomer, unassigned) [Example 86]	Ki	nM	2.3

I = COc1cc([C@@H](C)C(=O)N2CC[C@@]3(CCc4ccc(C)nc4N3)C2)nc(C)n1 (single isomer, unassigned) [Example 25]
II = COc1cc(OC)cc([C@@H](C)C(=O)N2CC[C@@]3(CCc4ccc(C)nc4N3)C2)c1 (single isomer, unassigned) [Example 96]
III = COc1nccc([C@@H](C)C(=O)N2CC[C@@]3(CCc4cc(-c5ncccn5)c(C)nc4N3)C2)c1F (single isomer, unassigned) [Example 57]
IV = COc1cc([C@@H](C)C(=O)N2CCC3(CCc4cc(-c5cnn(C)c5)c(C)nc4N3)C2)c(F)cn1 (single isomer, unassigned) [Example 17]
V = COc1cc([C@@H](C)C(=O)N2CCC3(CCc4cc(-c5nnn(C)n5)c(C)nc4N3)C2)c(Cl)cn1 (single isomer, unassigned) [Example 1]
Ordering criterion: Ki; begin with the maximum. // rank by listing labels in the order requested
I, IV, II, III, V

----------
biological target: hMC4R (Homo sapiens (Human)); assay: In vitro binding affinity assay using hMC4R (radioligand competition binding, [125I]-(Nle4, D-Phe7)-α-MSH); details: geometric mean, read-out: Ki (nM) geometric mean
measuredParameter: Ki (nM)

compound	measuredOn	unitText	Ki
COc1cc([C@@H](C)C(=O)N2CC[C@@]3(CCc4cc(-c5nc(C(F)(F)F)n(C)n5)c(C)nc4N3)C2)c(Cl)cn1 (single isomer, unassigned)	hMC4R (Homo sapiens (Human))	nM	86
Cc1nc2c(cc1-c1ncccn1)CC[C@@]1(CCN(C(=O)[C@H](C)c3cc(F)c(F)c(F)c3)C1)N2 (single isomer, unassigned) [Example 55]	hMC4R (Homo sapiens (Human))	nM	58
COc1cc([C@@H](C)C(=O)N2CC[C@@]3(CCc4ccc(C)nc4N3)C2)nc(C)n1 (single isomer, unassigned) [Example 26]	hMC4R (Homo sapiens (Human))	nM	210

I = COc1cc(OC(F)F)cc([C@@H](C)C(=O)N2CC[C@@]3(CCc4cc(-c5ncccn5)c(C)nc4N3)C2)c1 (single isomer, unassigned) [Example 61]
II = Cc1nc(OC(F)F)cc([C@@H](C)C(=O)N2CC[C@@]3(CCc4cc(-c5ncccn5)c(C)nc4N3)C2)n1 (single isomer, unassigned)
Among I and II , which shows a numerically higher Ki result? Reply with the label of the item you choose.
I

A = Cc1nc2c(cc1-c1cnn(C)c1)CCC1(CCN(C(=O)Cc3ccc(F)cc3)C1)N2 (single isomer, unassigned) [Example 20]
B = COc1ccc([C@@H](C)C(=O)N2CC[C@@]3(CCc4cc(-c5ncccn5)c(C)nc4N3)C2)cc1F (single isomer, unassigned)
C = COc1cc(OC)cc([C@@H](C)C(=O)N2CC[C@@]3(CCc4ccc(C)nc4N3)C2)c1 (single isomer, unassigned) [Example 97]
// ascending sort on recorded Ki List labels; respect the requested ordering.
A, B, C
(A: 0.6 nM, B: 43 nM, C: 100 nM)

----------
molecular target: UniProt:P32245; experiment: In vitro binding affinity assay using hMC4R (radioligand competition binding, [125I]-(Nle4, D-Phe7)-α-MSH); conditions: geometric mean, read-out: Ki (nM) geometric
measuredParameter: Ki (nM)

compound	Ki / nM
COc1cc([C@@H](C)C(=O)N2CCC3(CCc4cc(-c5nc(OC)n(C)n5)c(C)nc4N3)C2)c(Cl)cn1 (single isomer, unassigned) [Example 114]	0.48
COc1cc([C@@H](C)C(=O)N2CC[C@@]3(CCc4cc(-c5nc6ccccn6n5)c(C)nc4N3)C2)nc(C(F)F)n1 (single isomer, unassigned) [Example 130]	5.9
COc1cc([C@@H](C)C(=O)N2CC[C@@]3(CCc4cc(-c5nc(OC)n(C)n5)c(C)nc4N3)C2)c(F)cn1 (single isomer, unassigned)	17

1 = Cc1nc2c(cc1-c1ncccn1)CC[C@@]1(CCN(C(=O)[C@H](C)c3ccc(F)cc3F)C1)N2 (single isomer, unassigned)
2 = COc1cc([C@@H](C)C(=O)N2CC[C@@]3(CCc4cc(-c5nc6ccccn6n5)c(C)nc4N3)C2)c(F)cn1
3 = COc1cc([C@@H](C)C(=O)N2CC[C@@]3(CCc4cc(-c5cncc(OC)n5)c(C)nc4N3)C2)c(F)cn1
4 = COc1cc([C@@H](C)C(=O)N2CC[C@@]3(CCc4cc(-c5ncccn5)c(C)nc4N3)C2)c(C)cn1 (single isomer, unassigned)
Arrange items by their Ki values in increasing order. Your reply should list the labels following the order given in the request.
2, 3, 4, 1
(2: 0.25 nM, 3: 18 nM, 4: 59 nM, 1: 230 nM)

1 = COc1ncc(F)c([C@@H](C)C(=O)N2CC[C@@]3(CCc4cc(-c5nnn(C)n5)c(C)nc4N3)C2)n1 (single isomer, unassigned)
2 = COc1cc([C@@H](C)C(=O)N2CC[C@@]3(CCc4cc(-c5nc6ccccn6n5)c(C)nc4N3)C2)nc(C(F)F)n1 (single isomer, unassigned) [Example 129]
3 = COc1cc([C@@H](C)C(=O)N2CC[C@@]3(CCc4cc(-c5nc(C(F)F)n(C)n5)c(C)nc4N3)C2)nc(C)n1 (single isomer, unassigned)
Put the entries in order of Ki, starting with the largest number. Provide your answer as the labels ordered per the instruction.
3, 1, 2
(3: 6.7 nM, 1: 3.8 nM, 2: 0.44 nM)

1 = COc1cc([C@@H](C)C(=O)N2CC[C@@]3(CCc4cc(-c5nnn(C)n5)c(C)nc4N3)C2)ccn1 (single isomer, unassigned)
2 = COc1cc([C@@H](C)C(=O)N2CCC3(CCc4cc(-c5nc(OC)n(C)n5)c(C)nc4N3)C2)c(Cl)cn1 (single isomer, unassigned) [Example 115]
// select label with min value of measured Ki from [ 1 , 2 ] Output the label that corresponds to your choice.
2

A = Cc1nc2c(cc1-c1nnn(C)n1)CC[C@@]1(CCN(C(=O)[C@H](C)c3ccc(OC(F)F)nc3)C1)N2 (single isomer, unassigned)
B = COc1cc([C@@H](C)C(=O)N2CC[C@@]3(CCc4cc(-c5nc(N(C)C)cc(C(F)(F)F)n5)c(C)nc4N3)C2)c(F)cn1
Which record would sort first by descending Ki, A or B ? Could you answer with the label of the item you picked?
B
